# Test system: Plasma
# MEASUREMENT_DESCRIPTION: Stability in plasma assessed as compound remaining at 3 hrs
# Format: ADME, cell-free
VALUE_TYPE: Stability (%)

Cc1cc(N[C@H](CCCCNCc2ccc(F)cc2)C(=O)NO)cc(C)c1F ... 90
CCC(NCCCC[C@@H](Nc1cc(C)c(F)c(C)c1)C(=O)NO)c1ccc(F)cc1 (mixture of isomers) ... 84
CCC(NCCCC[C@@H](Oc1cc(C)c(F)c(C)c1)C(=O)NO)c1ccc(F)cc1 (mixture of isomers) ... 38
Cc1cc(C[C@H](CCCCNCc2ccc(F)cc2)C(=O)NO)cc(C)c1F ... 100
Cc1cc(O[C@H](CCCCNCc2ccc(F)cc2)C(=O)NO)cc(C)c1F ... 61
CCC(NCCCC[C@@H](Cc1cc(C)c(F)c(C)c1)C(=O)NO)c1ccc(F)cc1 (mixture of isomers) ... 95
CCC(NCCCC[C@@H](C[C@@H](OC)c1ccc(F)cc1)C(=O)NO)c1ccc(F)cc1 (mixture of isomers) ... 94

All values here come from ChEMBL document CHEMBL2010758.
